Cited source for all entries: ChEMBL document CHEMBL1671823

Here the recorded IC50 is given for each entry.
Biological target: Gamma-aminobutyric acid receptor subunit rho-1 (Homo sapiens, UniProt P24046)
Sequence (P24046 whole entry): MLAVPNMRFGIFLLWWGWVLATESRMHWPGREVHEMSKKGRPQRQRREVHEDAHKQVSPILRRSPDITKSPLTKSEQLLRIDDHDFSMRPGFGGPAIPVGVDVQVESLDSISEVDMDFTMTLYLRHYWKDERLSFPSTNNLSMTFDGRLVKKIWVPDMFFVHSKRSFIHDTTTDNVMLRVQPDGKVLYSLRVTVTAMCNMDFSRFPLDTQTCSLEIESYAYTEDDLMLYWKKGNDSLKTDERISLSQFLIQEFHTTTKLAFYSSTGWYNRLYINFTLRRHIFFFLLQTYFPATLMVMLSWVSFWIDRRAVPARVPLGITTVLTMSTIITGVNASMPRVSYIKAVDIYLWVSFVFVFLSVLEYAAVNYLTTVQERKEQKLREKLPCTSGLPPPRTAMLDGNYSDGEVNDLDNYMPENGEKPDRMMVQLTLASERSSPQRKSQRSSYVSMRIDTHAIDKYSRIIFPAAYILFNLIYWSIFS
Assay: Antagonist activity at human recombinant GABAc rho-1 receptor expressed in Xenopus laevis oocytes assessed as inhibition of GABA-induced current by two electrode voltage clamp technique
Write the answer as a number in µM, unit excluded.

// solved cases for IC50 follow
- NCC1CCP(=O)(O)C1 (stereo not drawn): 19.9
- CP(=O)(O)C1=CCNCC1: 2.22

(Q) Entry under review: N=C(N)NC1CCP(=O)(O)C1 (stereo not drawn) . Reported IC50?
(A) 29.7
